Entries and their measured MONOCYTE follow.
Species: Rattus norvegicus
Assay: DrugMatrix - Regimen: Daily Repeat
Format: toxicity, organism-based, Sprague-Dawley
Design: regimen Daily Repeat, gender Male, age 6-8 weeks
Conditions: in vivo, po, 2000 mg/kg, 72 h, tissue Blood, route oral GAVAGE, dose level High, time 3 day, vehicle .5 % CMC
Value Type: MONOCYTE (%)

>>> observed("NC1CCN(c2nc3c(cc2F)c(=O)c(C(=O)O)cn3-c2ccc(F)cc2F)C1 (stereo unspecified) [TOSUFLOXACIN]")
0
>>> observed("CN(C/C=C/C#CC(C)(C)C)Cc1cccc2ccccc12 [TERBINAFINE]")
0
>>> observed("CC1(C)S[C@@H]2[C@H](NC(=O)[C@H](N)c3ccccc3)C(=O)N2[C@H]1C(=O)O [AMPICILLIN]")
0.33
>>> observed("O=C1Nc2ccc(Cl)cc2C(c2ccccc2Cl)=NC1O (stereo unspecified) [LORAZEPAM]")
2
>>> observed("COc1cc2nc(N3CCN(C(=O)c4ccco4)CC3)nc(N)c2cc1OC [PRAZOSIN]")
1.33
>>> observed("CN/C(=N/CCSCc1nc[nH]c1C)NC#N [CIMETIDINE]")
0.33
